- tested target: full-length ATR (Homo sapiens)
- Construct: Assays were carried out at 25° C. in the presence of 5 nM full-length ATR
- Sequence (Q13535 whole entry): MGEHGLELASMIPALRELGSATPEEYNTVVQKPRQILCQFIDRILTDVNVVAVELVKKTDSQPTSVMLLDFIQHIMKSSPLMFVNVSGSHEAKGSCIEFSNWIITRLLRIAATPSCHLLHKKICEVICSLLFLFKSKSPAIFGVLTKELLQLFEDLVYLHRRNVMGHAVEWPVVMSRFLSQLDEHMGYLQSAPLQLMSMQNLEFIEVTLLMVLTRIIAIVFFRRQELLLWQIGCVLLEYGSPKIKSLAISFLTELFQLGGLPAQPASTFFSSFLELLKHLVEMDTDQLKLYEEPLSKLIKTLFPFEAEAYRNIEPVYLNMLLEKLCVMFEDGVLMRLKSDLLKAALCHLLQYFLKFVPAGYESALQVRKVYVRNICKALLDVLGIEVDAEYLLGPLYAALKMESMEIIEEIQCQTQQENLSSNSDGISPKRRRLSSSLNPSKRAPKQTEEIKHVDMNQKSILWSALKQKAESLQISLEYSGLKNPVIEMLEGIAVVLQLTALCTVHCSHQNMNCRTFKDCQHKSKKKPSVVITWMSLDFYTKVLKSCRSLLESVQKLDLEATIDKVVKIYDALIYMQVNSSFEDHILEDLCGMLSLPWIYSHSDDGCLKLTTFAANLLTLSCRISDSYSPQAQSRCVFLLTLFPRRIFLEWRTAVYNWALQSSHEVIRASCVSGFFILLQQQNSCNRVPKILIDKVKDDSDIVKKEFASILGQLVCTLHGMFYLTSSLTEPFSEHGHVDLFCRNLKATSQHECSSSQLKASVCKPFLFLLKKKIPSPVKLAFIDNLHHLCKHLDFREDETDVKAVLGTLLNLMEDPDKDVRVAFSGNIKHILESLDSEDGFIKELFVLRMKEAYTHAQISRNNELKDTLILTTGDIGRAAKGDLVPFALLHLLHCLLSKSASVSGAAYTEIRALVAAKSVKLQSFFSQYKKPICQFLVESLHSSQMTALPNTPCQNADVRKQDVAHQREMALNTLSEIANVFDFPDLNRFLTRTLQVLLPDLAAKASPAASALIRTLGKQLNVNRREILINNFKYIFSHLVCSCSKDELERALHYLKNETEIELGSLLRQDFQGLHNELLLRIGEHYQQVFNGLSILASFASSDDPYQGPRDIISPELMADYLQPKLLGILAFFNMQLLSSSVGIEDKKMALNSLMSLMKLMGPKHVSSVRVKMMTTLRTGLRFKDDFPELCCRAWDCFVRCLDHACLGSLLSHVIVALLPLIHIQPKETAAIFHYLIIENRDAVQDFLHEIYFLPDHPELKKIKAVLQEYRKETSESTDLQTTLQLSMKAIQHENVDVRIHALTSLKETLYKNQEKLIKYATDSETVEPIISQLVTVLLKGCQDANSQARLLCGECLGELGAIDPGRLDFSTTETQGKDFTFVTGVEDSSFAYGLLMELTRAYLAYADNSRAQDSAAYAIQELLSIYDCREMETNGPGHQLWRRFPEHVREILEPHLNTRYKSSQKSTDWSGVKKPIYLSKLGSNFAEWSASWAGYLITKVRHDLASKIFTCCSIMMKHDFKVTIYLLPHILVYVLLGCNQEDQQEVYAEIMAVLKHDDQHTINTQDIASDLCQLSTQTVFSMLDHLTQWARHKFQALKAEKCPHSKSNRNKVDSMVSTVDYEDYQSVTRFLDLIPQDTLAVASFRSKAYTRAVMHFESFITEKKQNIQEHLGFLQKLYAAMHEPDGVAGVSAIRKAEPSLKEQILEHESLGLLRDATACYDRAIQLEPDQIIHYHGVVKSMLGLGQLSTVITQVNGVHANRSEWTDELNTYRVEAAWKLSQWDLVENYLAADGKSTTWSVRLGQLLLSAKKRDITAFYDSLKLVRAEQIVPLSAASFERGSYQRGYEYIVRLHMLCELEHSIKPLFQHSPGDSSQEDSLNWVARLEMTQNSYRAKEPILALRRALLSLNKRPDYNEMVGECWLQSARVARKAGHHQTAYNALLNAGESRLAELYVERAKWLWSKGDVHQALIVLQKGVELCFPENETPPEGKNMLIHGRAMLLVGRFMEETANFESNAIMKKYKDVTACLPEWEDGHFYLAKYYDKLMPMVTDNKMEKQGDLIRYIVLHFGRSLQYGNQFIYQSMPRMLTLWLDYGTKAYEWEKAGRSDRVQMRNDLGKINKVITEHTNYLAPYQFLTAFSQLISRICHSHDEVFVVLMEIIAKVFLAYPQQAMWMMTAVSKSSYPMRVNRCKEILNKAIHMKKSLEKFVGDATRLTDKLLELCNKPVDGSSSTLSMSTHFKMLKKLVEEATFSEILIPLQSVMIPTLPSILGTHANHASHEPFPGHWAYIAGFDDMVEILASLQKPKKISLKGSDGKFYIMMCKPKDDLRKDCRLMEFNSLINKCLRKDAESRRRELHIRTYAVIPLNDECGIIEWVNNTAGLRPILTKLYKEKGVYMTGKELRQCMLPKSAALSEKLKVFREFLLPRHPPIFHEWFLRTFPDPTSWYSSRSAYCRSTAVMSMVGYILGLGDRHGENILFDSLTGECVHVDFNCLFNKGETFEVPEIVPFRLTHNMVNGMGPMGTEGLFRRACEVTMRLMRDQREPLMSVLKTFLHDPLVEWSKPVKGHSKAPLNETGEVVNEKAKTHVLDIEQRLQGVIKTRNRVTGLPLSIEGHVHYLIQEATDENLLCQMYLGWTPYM
- assay explanation: ATR Inhibition Assay (radioactive-phosphate incorporation)
- experimental setup: Ki(app); 5 nM full-length ATR, 10 μM [γ-33P]ATP, 800 μM target peptide, 25° C.
measure name: Ki (nM)

CC(C)S(=O)(=O)c1ccc(-c2cnc(N)c(-c3cc(-c4ccccc4)[nH]n3)n2)cc1	2.86
CC(C)S(=O)(=O)c1ccc(-c2cnc(N)c(-c3ncc(-c4ccccc4)o3)n2)cc1	4.03
